Sourced from patent US20260232732A1

molecular target: T1, biotin-peptide TDFYCEKNNV (human); assay: ELISA biotin-peptide; scFv 10 ug/mL; repI
T1 peptide: Biotin-TDFYCEKNNV
Where no end group is shown, it is not given here. The star is where a group is joined. Biotin = O=C1N[C@H]2[C@H](CS[C@H]2CCCCC(=O)*)N1
Items are presented alongside their recorded OD450.
Write the number in OD without appending the unit.

binder: Comparative antibody 2 (Comp-2) scFv, 243LO326 (VH SEQ ID NO: 51 and VL SEQ ID NO: 52 of WO 2022/195028 A2), His-tagged (scFv) scFv: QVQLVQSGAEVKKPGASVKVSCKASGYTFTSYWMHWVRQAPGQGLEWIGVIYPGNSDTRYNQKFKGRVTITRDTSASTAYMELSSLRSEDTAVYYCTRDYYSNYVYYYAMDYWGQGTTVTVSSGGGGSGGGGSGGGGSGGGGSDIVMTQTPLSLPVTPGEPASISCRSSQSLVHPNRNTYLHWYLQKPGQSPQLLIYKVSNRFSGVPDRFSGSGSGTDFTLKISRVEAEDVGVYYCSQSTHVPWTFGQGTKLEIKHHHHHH
OD450 / OD: 0.06

binder: Comparative antibody 1 (Comp-1) scFv, SEQ ID NO: 10 from WO2023/037125 A1, His-tagged (scFv) scFv: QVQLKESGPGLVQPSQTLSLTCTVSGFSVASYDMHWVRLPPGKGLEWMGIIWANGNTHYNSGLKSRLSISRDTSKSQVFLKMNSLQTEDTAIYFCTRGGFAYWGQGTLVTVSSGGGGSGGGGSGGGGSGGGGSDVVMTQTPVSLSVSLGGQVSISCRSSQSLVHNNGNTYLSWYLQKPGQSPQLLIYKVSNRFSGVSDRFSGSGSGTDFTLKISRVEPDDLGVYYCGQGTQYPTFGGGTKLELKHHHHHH
OD450 / OD: 0.08

binder: Comparative antibody 3 (Comp-3) scFv, SR_92R (Somovilla-Crespo et al. 2018), His-tagged (scFv) scFv: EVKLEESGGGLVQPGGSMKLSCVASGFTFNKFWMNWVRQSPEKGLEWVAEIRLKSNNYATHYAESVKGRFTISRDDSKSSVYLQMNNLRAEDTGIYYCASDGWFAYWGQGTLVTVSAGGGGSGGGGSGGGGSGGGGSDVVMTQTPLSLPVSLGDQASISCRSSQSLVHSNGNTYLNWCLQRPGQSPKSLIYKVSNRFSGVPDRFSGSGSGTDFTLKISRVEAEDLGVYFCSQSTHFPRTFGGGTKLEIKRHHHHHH
OD450 / OD: 0.08

Which OD450 value is on record for CCR9_HUM2 scFv (humanized anti-CCR9 scFv, SEQ ID NO: 17 with C-terminal 6xHis tag) (scFv) scFv: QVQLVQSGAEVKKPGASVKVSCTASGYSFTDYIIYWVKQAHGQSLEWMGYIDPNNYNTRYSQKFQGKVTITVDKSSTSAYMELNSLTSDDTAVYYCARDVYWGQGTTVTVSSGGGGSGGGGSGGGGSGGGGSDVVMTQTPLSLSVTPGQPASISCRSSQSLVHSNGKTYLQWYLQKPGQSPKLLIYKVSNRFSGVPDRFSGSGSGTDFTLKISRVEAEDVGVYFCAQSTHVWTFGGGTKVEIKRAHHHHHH ?
0.08
